- Tgt: Sodium/hydrogen exchanger 3 (Homo sapiens, UniProt P48764)
- Sequence (P48764 whole entry): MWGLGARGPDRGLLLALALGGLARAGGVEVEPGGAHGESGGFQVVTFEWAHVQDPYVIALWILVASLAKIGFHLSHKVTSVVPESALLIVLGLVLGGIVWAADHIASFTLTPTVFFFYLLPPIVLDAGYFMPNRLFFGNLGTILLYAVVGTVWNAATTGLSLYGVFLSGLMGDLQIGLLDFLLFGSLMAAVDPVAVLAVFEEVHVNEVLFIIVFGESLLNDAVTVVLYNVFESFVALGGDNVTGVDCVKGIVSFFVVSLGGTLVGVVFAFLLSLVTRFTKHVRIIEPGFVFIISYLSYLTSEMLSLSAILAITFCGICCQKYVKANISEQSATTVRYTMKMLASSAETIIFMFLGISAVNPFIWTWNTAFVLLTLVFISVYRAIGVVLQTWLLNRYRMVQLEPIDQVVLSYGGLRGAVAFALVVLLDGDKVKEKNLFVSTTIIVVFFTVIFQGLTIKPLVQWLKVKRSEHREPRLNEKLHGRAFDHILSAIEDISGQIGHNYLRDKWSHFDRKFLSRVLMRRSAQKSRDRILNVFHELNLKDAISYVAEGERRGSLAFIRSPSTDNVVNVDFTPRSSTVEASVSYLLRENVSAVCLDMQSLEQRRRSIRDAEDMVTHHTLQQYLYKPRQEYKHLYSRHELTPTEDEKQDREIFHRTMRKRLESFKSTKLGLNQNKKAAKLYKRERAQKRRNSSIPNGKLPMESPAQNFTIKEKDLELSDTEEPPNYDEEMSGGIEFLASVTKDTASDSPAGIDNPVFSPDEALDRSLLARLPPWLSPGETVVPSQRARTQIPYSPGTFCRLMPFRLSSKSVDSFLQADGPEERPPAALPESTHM
- Assay details: Cell-Based Assay of NHE-3 Activity (Pre-Incubation Inhibition): Rat and human NHE-3-mediated Na+-dependent H+ antiport was measured using a modification of the pH sensitive dye method originally reported by Paradiso (Proc. Natl. Acad. Sci. USA. (1984) 81(23): 7436-7440). PS120 fibroblasts stably expressing human NHE3 and NHERF2 were obtained from Mark Donowitz (Baltimore, Md.). Opossum kidney (OK) cells were obtained from the ATCC and propagated per their instructions. The rat NHE-3 gene (GenBank M85300) was introduced into OK cells via electroporation, and cells were seeded into 96 well plates and grown overnight. Medium was aspirated from the wells then incubated for 30 min at 37° C. with NH4Cl-HEPES buffer (20 mM NH4Cl, 80 mM NaCl, 50 mM HEPES, 5 mM KCl, 2 mM CaCl2, 1 mM MgCl2, pH 7.4) containing 5 μM BCECF-AM. Cells were washed once with Ammonium free, Na+-free HEPES (100 mM choline, 50 mM HEPES, 10 mM glucose, 5 mM KCl, 2 mM CaCl2, 1 mM MgCl2, pH 7.4) and incubated in the same buffer for 10 minutes at room temperature to lower intracellular pH with 0-30 μM test compound. […] Changes in intracellular pH were monitored using a FLIPR Tetra® (Molecular Devices, Sunnyvale, Calif.) by excitation at λex 439 to 505 nm, and measuring BCECF fluorescence at λem 538 nm. The initial rate of the fluorescence ratio change was used as a measure of NHE-mediated Na+/H+ activity, and reported as the change in fluorescence ratio per minute.
pIC50: −log10 of the molar value.
Reported pIC50 values for a set of compounds

| Entry smiles | pIC50 |
| --- | --- |
| Cc1cc(Cl)cc2c1C[C@H](N1CCC[C@@H](N)C1)[C@H]2Oc1ccc(S(=O)(=O)NCCOCCOCCNC(=O)NCCCCNC(=O)NCCOCCOCCNS(=O)(=O)c2ccc(O[C@H]3c4cc(Cl)cc(C)c4C[C@@H]3N3CCC[C@@H](N)C3)c(F)c2)cc1F | > 7.00 |
| N[C@@H]1CCCN([C@H]2Cc3c(Cl)cc(Cl)cc3[C@@H]2Oc2ccc(S(=O)(=O)NCCCCCCn3cc(CNC(=O)NCCCCNC(=O)NCc4cn(CCCCCCNS(=O)(=O)c5ccc(O[C@H]6c7cc(Cl)cc(Cl)c7C[C@@H]6N6CCC[C@@H](N)C6)cc5)nn4)nn3)cc2)C1 | > 7.00 |
| Cc1cc(S(=O)(=O)NCCOCCOCCNC(=O)NCCCCNC(=O)NCCOCCOCCNS(=O)(=O)c2ccc(O[C@H]3c4cc(Cl)cc(C#N)c4C[C@@H]3N3CCC[C@@H](N)C3)c(C)c2)ccc1O[C@H]1c2cc(Cl)cc(C#N)c2C[C@@H]1N1CCC[C@@H](N)C1 | < 6.00 |
| Cc1cc(Cl)cc2c1C[C@H](N1CCC[C@@H](N)C1)[C@H]2Oc1ccc(S(=O)(=O)NCCOCCOCCNC(=O)NCCCCNC(=O)NCCOCCOCCNS(=O)(=O)c2ccc(O[C@H]3c4cc(Cl)cc(C)c4C[C@@H]3N3CCC[C@@H](N)C3)cc2)cc1 | > 7.00 |
| Cc1cc(S(=O)(=O)NCCOCCOCCNC(=O)NCCCCNC(=O)NCCOCCOCCNS(=O)(=O)c2cc(C)c(O[C@H]3c4cc(Cl)cc(Cl)c4C[C@@H]3N3CCC[C@@H](N)C3)cc2F)c(F)cc1O[C@H]1c2cc(Cl)cc(Cl)c2C[C@@H]1N1CCC[C@@H](N)C1 | > 7.00 |
| CN(C)[C@H]1Cc2c(Cl)cc(Cl)cc2[C@@H]1Oc1ccc(S(=O)(=O)NCCCCCCCCNC(=O)NCCCCNC(=O)NCCCCCCCCNS(=O)(=O)c2ccc(O[C@H]3c4cc(Cl)cc(Cl)c4C[C@@H]3N(C)C)cc2)cc1 | < 6.00 |
| N[C@@H]1CCCN([C@H]2Cc3c(Cl)cc(Cl)cc3[C@@H]2Oc2c(F)cc(S(=O)(=O)NCCOCCOCCNC(=O)NCCCCNC(=O)NCCOCCOCCNS(=O)(=O)c3cc(F)c(O[C@H]4c5cc(Cl)cc(Cl)c5C[C@@H]4N4CCC[C@@H](N)C4)c(F)c3)cc2F)C1 | > 7.00 |
| N[C@@H]1CCCN([C@H]2Cc3c(Cl)cc(Cl)cc3[C@@H]2Oc2ccc(S(=O)(=O)NCCOCCOCCNC(=O)NCCCCNC(=O)NCCOCCOCCNS(=O)(=O)c3ccc(O[C@H]4c5cc(Cl)cc(Cl)c5C[C@@H]4N4CCC[C@@H](N)C4)c(F)c3)cc2F)C1 | > 7.00 |
